Recorded Kb, one value per entry.
biological target: Rat H3 (Rattus norvegicus, UniProt Q9QYN8); assay: cell-based; settings: SK-N-MC subline expressing reporter construct and rat H3 receptor; average; read-out: Rat pA2 (converted)
Sequence (Q9QYN8 whole entry): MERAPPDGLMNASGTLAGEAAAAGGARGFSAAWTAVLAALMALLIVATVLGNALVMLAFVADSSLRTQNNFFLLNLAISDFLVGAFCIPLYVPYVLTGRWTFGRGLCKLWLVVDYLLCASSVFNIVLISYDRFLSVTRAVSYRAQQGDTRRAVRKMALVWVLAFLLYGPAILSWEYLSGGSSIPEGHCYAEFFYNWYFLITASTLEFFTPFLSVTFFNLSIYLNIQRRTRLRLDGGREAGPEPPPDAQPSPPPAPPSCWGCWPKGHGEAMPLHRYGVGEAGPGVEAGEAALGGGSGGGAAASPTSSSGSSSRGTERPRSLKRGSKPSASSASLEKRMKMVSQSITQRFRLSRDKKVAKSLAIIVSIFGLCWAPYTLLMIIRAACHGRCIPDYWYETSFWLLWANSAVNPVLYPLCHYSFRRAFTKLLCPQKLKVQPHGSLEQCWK
Structures can show the parent of a compound that is named as a salt.
Property Label: Kb (nM)

>  <Compound>
O=C(c1ccc(Sc2ccccc2)nc1)N1CCCN(C2CCC2)CC1

>  <Assayed Target>
Rat H3 (Rattus norvegicus, UniProt Q9QYN8)

>  <Experimental Result>
3.16

$$$$
>  <Compound>
O=C(c1ccc(Oc2cccc(Cl)c2)nc1)N1CCCN(C2CCC2)CC1

>  <Assayed Target>
Rat H3 (Rattus norvegicus, UniProt Q9QYN8)

>  <Experimental Result>
4.37

$$$$
>  <Compound>
O=C(c1ccc(Oc2ccccc2Cl)nc1)N1CCCN(C2CCC2)CC1

>  <Assayed Target>
Rat H3 (Rattus norvegicus, UniProt Q9QYN8)

>  <Experimental Result>
1.2

$$$$
>  <Compound>
O=C(c1ccc(Oc2ccc(Cl)cc2)nc1)N1CCCN(C2CCC2)CC1

>  <Assayed Target>
Rat H3 (Rattus norvegicus, UniProt Q9QYN8)

>  <Experimental Result>
3.8

$$$$
>  <Compound>
O=C(c1ccc(Sc2ccc(F)cc2)nc1)N1CCCN(C2CCC2)CC1

>  <Assayed Target>
Rat H3 (Rattus norvegicus, UniProt Q9QYN8)

>  <Experimental Result>
3.24

$$$$
>  <Compound>
O=C(c1ccc(Oc2ccc(Cl)cc2)cn1)N1CCCN(C2CCC2)CC1 [Example 68, trifluoroacetic acid salt]

>  <Assayed Target>
Rat H3 (Rattus norvegicus, UniProt Q9QYN8)

>  <Experimental Result>
15.8

$$$$
>  <Compound>
O=C(c1ccc(Oc2cccc(Cl)c2)cn1)N1CCCN(C2CCC2)CC1 [Example 70, trifluoroacetic acid salt]

>  <Assayed Target>
Rat H3 (Rattus norvegicus, UniProt Q9QYN8)

>  <Experimental Result>
19.1

$$$$

All figures here come from patent US8940731B2.
